# Assayed system: T1, CADM1-His (Acro Biosystems) (human, UniProt Q9BY67 45-374)
# T1 construct: Bought; also called CADM1/IGSF4A; not shown: His tag of the bought protein
# T1 sequence: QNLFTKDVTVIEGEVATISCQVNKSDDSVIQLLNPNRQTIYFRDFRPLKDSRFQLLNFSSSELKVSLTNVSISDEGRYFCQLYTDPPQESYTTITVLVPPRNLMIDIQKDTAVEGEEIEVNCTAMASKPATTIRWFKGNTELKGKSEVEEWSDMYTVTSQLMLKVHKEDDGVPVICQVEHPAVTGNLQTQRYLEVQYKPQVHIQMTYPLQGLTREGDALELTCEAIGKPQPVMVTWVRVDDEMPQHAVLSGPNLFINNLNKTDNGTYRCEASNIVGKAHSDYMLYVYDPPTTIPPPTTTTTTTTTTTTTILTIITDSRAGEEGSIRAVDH
# Assay notes: ELISA on coated CADM1-His, 150 ng IgG1; None 0.059
Measured metric: ELISA Absorbance (405 nm-570 nm)
# output: bare number, no unit

Kindly indicate its recorded ELISA Absorbance (405 nm-570 nm). Item: HW-42 chimeric rabbit-human IgG1 LA/LA/PG (antibody, V domains shown, Fc-silenced (L234A/L235A/P329G) IgG1, lambda; Alexa Fluor 647-labeled in single-step flow cytometry; Cluster C-1) VH: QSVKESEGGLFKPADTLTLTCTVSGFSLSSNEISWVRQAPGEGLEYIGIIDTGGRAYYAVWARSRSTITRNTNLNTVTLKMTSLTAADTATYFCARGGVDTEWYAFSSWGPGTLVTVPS VL: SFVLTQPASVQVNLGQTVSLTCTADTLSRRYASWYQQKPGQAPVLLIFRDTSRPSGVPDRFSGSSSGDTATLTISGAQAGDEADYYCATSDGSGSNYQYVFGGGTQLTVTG 0.061
